Please go through the items and note down their IC50.
# Test system: PARG in HeLa cell line
# assay_summary: PARG cell assay (PAR chain immunofluorescence after MMS)
# Assay type: cell-based
# measurement_parameters: Homo sapiens; HeLa cells, MMS 50 μg/mL; read-out: PARG Cell IC50 Geomean
State the value, then name its unit.

Task: Requested field: IC50. Item: CC(=O)Cn1c(=O)n(Cc2cc(C)no2)c(=O)c2cc(S(=O)(=O)NC3(C)CC3)ccc21
Result: 736 nM

Task: Query (compound): Cc1cc(Cn2c(=O)c3cc(S(=O)(=O)NC4(C#N)CC4)ccc3n(C)c2=O)on1 ; field requested: IC50
Result: 1470 nM

Task: Would you kindly share the measured IC50 for Cc1cc(Cn2c(=O)c3cc(S(=O)(=O)NC4(C)CC4)ccc3n(CCCN3CCN(C)CC3)c2=O)on1 ?
Result: 853 nM
